- System: Plasmodium falciparum Sir2 (PF13_0152, Sir2A)
- method: Plasmodium falciparum Sir2A binding compounds – biochemical, small-molecule microarray, 635 nm fluorescence, primary screen (AID 1098);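 further: score merges spot fluorescence intensity with its signal-to-noise ratio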
- experimental_context: fluorescence 635 nm, higher = more signal
The following compounds are shown together with reported composite z-score values.
Would you mind answering with just the numeric figure?

compound: COC(=O)c1ccc(OC)c(/C=C\CC(CCc2ccccc2)OC(C)=O)c1 (stereo not given)
composite z-score: -0.388
--
compound: CCCCC(CC)C(O)C1C=CC2C(=O)NC(=O)C2N1Nc1ccccn1 (stereo not given)
composite z-score: 0.768
--
compound: CCC[C@@H]1C[C@@]1(CCC)[C@@H](NC(=O)c1cccs1)c1ccc(Cl)cc1
composite z-score: -0.67
--
compound: CC(C)C[C@@H]1NC(=O)[C@@H]2C[C@H](C(=O)NCc3ccc(F)cc3)[C@H](c3ccc(O)cc3)N2C1=O
composite z-score: 1.03
--
compound: COCCOC(=O)N1C(=O)[C@@]2(c3cc(C#Cc4ccc(OC)cc4)ccc31)[C@H](C(=O)N1CCc3cc(OC)c(OC)cc3C1)[C@H]1C(=O)O[C@H](c3ccccc3)[C@H](c3ccccc3)N1[C@@H]2c1ccc(OCCO)cc1
composite z-score: -0.352

(Q) If you can, please state the reported composite z-score value of C=C(/C(=C/C[C@@H](OC(=O)c1ccncc1)c1ccccc1OCCO)c1cnc2ccccc2c1)C(C)C .
(A) 0.25

(Q) Quick one: COc1cc(C(O)C2C=CC3C(=O)NC(=O)C3N2Nc2ccc(Cl)cc2Cl)cc(OC)c1OC (stereo not given)
(A) 1.18

(Q) Quick one: CC1CC/C=C\[C@H]2OC34C=CCN(c5ccc(Cl)cc5)C(=O)[C@H]3N(C(CO)C(C)C)C(=O)[C@]4(C)C2C(=O)O1 (stereo not given in full)
(A) 1.86

(Q) Quick one: Cc1ccc(-c2cccc(=O)o2)cc1
(A) -0.466

(Q) Quick one: O=[N+]([O-])c1ccc(C[n+]2ccc(-c3ccc(CO)cc3)cc2)o1
(A) 1.2

(Q) Quick one: CN(C)C(=O)[C@@]1(CCC(=O)OC(C)(C)C)N=C(c2ccc(OCCCO)cc2)O[C@H]1c1ccccc1N=[N+]=[N-]
(A) 1.33

These data points were gathered from PubChem BioAssay.
